- Measured Target: NaV1.8 (Homo sapiens, UniProt Q9Y5Y9)
- Sequence (Q9Y5Y9 whole entry): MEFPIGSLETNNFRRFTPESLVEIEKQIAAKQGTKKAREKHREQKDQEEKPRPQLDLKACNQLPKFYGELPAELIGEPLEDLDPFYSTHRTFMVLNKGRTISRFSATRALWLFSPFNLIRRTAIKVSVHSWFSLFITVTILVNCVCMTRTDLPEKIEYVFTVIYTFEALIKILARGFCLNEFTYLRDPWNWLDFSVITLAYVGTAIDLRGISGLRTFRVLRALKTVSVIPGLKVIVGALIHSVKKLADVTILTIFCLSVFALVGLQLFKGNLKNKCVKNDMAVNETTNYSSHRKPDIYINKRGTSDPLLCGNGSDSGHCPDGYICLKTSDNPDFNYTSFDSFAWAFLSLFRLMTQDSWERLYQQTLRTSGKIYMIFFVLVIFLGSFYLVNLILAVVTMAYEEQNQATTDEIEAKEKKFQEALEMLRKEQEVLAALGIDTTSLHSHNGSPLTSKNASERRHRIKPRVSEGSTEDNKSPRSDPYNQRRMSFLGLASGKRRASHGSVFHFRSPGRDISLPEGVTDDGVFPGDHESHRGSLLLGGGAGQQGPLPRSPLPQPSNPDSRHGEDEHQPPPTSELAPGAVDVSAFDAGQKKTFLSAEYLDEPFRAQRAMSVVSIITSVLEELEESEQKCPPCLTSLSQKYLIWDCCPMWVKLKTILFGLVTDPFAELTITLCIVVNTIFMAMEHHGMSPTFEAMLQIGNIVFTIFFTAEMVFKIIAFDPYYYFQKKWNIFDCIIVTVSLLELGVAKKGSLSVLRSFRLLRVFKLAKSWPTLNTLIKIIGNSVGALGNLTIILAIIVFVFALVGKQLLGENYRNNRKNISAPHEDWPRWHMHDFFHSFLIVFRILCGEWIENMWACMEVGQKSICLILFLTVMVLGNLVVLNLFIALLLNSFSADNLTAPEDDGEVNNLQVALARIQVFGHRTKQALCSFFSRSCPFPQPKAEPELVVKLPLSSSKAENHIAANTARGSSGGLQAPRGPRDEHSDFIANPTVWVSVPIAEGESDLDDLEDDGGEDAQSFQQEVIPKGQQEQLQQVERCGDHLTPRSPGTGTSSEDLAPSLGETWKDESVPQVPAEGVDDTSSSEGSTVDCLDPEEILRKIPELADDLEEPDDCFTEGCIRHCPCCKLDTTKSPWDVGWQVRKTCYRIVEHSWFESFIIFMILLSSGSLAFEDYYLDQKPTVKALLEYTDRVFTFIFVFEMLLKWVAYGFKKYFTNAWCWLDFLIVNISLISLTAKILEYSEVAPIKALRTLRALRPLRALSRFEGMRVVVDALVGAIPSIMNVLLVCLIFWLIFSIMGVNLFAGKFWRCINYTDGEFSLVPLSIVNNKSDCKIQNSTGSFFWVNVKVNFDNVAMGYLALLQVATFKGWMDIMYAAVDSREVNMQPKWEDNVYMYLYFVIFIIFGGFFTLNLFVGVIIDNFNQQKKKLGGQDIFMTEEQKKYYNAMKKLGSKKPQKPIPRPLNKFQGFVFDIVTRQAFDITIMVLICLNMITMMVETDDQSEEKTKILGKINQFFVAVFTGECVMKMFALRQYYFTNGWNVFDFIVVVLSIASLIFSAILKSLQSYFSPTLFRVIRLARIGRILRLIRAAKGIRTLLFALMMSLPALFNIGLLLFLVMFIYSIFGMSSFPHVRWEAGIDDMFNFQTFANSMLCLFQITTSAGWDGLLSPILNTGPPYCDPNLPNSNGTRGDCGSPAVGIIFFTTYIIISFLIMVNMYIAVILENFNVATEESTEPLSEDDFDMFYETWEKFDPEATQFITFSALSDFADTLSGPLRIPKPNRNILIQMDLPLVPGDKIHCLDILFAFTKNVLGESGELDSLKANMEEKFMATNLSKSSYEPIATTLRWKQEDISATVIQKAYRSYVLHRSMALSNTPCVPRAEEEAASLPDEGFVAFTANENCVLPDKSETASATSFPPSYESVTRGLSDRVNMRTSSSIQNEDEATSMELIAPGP
- Experimental Protocol: Sodium channel selectivity, NaV1.8
- Stated Conditions: read-out: EC50 against NaV1.8
Readout Label: EC50

-- ask Please give the measured EC50 for this compound: Nc1ccc(Oc2ccc(C(c3ccc(Oc4ccc(N)cc4)cc3)(C(F)(F)F)C(F)(F)F)cc2)cc1
-- reply > 100 µM
